Field: melting point. Provide a value for each of the molecules that follow.

Completed entries (count: 8):
Inquiry: State the recorded melting point for this entry: COc1ccc(Oc2ccc(C(=O)C(=O)c3ccc(Oc4ccc(OC)cc4)cc3)cc2)cc1
Reply text: 121 to 122 °C

Inquiry: Quick one: melting point of O=C1NC(=S)SC1=Cc1ccc2c(c1)N(OCc1ccccc1)C(=O)CO2 ?
Reply text: > 300 °C

Inquiry: Requested read-out: melting point. Entry: Brc1cccc(C2Cc3cnc(Nc4ccc(CCNCCN5CCOCC5)cc4)nc3-c3ccccc32)c1 (centres undefined)
Reply text: 85 to 87 °C

Inquiry: Value lookup for melting point; key = N#CC1=C(c2ccc3ccccc3c2)Nc2n[nH]cc2C1c1cccc2nonc12 (centres undefined)
Reply text: 228 °C

Inquiry: Sample COc1ccc(/C=C/C(=O)Nc2ccc(Br)cc2C(=O)O)cc1OC — what was its melting point?
Reply text: 210 to 213 °C

Inquiry: Sample COc1cc(C)c(CCCCCCCCCCCCCCCC(=O)O)c(O)c1OC — what was its melting point?
Reply text: 45 to 46 °C

Inquiry: Consider the molecule shown here: Cc1nccc(N2CCC(CN3CCN(S(=O)(=O)c4ccc(C(F)(F)F)cc4)CC3)CC2)n1 What is its recorded melting point?
Reply text: 135 to 136 °C

Inquiry: What value of measured melting point is listed for NC(=O)NN=Cc1ccc(Oc2ccc3c(c2)OCO3)cc1 ?
Reply text: 225 to 226 °C

# context switch: different molecule, same melting point
Inquiry: Recorded melting point of CCc1cc(Oc2ccc(S(C)(=O)=O)nc2)cc2cc(C3=NCC(CC(=O)N4CCS(=O)CC4)S3)[nH]c12 (centres undefined) , please.
Reply text: 194 to 196 °C
